Value source: paper PMC12366525

- Target Or System: AR-LBD and SRC1 (Homo sapiens, UniProt P10275)
- Construct: AR-LBD amino acids 658–919 expressed as a fusion protein with Gal4-DBD
- Sequence (P10275 658-919): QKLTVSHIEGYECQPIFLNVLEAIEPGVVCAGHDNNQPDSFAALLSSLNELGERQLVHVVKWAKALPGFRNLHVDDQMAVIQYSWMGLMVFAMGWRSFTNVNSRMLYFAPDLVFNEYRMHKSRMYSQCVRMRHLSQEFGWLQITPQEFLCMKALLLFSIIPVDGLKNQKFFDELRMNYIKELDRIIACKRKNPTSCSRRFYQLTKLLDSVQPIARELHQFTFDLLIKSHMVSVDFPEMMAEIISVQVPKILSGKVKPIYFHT
- Test Name: SRC1 mammalian 2-hybrid (M2H) assay
- Study Conditions: HEK 293 cells; 25 nM DHT; 27 h compound exposure; read-out: M2H AR-SRC1 CoA Recruitment IC50
Measured IC50 of individual entries
Record the value in µM, omitting the unit from your answer.

// recorded IC50 for Cc1ccccc1-c1cc(O)c2c(c1)CN(c1nccs1)CCO2 : 5.19

Query Cc1c(-c2ccccc2F)[nH]c2ccc(CNC(=O)c3ccc(CO)o3)cc12 yields IC50 of 2.5

Recorded IC50 (molecule Cc1c(-c2ccccc2F)[nH]c2ccc(CNC(=O)CCc3cn[nH]c3)cc12 ): 4.79

---

This section presents compounds with their documented GI50 values.
- Test Name: M2H viability counter screen
- Assay type: cell-based
- Study Conditions: human, HEK 293 cells; cytotoxicity counter screen; read-out: M2H viability CS GI50

GI50 reading for Cc1c(-c2ccc(F)cc2)[nH]c2ccc(CNC(=O)c3ccc(CO)o3)cc12 [S3–15] : > 100 µM

The recorded GI50 for CC(=O)NCCC(=O)NCc1ccc2[nH]c(-c3ccccc3F)c(C)c2c1 [S3–13] is > 100 µM

Sure, the documented GI50 for Cc1nsc(NC(=O)N2CCC(Sc3ccccc3C)CC2)n1 [S2–6] is > 100 µM

---

- Target Or System: full length AR (Homo sapiens, UniProt P10275, T878A)
- Construct: DHT-induced full length AR directed TA; endogenous in cells
- Sequence (P10275 whole entry T878A): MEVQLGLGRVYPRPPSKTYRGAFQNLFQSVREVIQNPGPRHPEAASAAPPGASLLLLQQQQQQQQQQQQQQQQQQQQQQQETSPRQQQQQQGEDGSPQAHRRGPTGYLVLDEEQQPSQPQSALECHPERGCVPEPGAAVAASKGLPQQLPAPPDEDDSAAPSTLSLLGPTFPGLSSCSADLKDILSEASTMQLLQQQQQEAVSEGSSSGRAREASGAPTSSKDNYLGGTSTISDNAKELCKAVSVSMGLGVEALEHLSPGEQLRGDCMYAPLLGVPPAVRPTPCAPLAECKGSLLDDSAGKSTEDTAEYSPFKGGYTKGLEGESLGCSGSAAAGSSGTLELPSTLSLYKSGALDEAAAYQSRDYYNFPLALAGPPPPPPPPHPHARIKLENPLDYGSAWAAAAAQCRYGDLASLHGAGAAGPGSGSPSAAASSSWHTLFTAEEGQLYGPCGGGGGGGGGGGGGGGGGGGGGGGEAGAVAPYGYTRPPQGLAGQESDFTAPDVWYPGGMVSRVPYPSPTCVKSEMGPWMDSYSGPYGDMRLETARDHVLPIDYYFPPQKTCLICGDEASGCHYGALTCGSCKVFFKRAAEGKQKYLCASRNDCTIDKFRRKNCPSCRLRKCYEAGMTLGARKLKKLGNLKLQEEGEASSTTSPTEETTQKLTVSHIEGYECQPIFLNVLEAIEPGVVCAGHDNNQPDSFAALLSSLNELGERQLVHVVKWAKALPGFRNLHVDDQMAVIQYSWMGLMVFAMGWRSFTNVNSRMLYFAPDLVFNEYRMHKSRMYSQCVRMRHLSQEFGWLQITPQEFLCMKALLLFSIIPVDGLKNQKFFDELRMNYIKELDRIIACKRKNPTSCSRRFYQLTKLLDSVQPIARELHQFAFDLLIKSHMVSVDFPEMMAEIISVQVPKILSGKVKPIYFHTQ
- Test Name: PSA-6.1 luciferase reporter assay in C4–2 CRPC cells
- Study Conditions: C4–2 cells; 50 nM DHT; 24 h; read-out: C4–2 PSA6.1-Luc Reporter IC50
Value Type: IC50

Cc1c(-c2ccccc2F)[nH]c2ccc(CNC(=O)CCc3cnccn3)cc12
7.7 µM
Cc1c(-c2ccccc2F)[nH]c2ccc(CNC(=O)c3ccc(CO)o3)cc12
10.8 µM
Cc1c(-c2ccc(F)cc2)[nH]c2ccc(CNC(=O)c3ccc(CO)o3)cc12
7 µM

Bench note, full length AR (Homo sapiens, UniProt P10275, T878A): entry CC(=O)NCCC(=O)NCc1ccc2[nH]c(-c3ccccc3F)c(C)c2c1 , its IC50 = 58.5 µM

The observed IC50 for Cc1ccccc1-c1cc(O)c2c(c1)CN(c1nc(C(N)=O)cs1)CCO2 when tested with full length AR (Homo sapiens, UniProt P10275, T878A) stands at 17.1 µM

Form: item Cc1c(-c2ccccc2F)[nH]c2ccc(CNC(=O)CCc3cn[nH]c3)cc12 ; test system full length AR (Homo sapiens, UniProt P10275, T878A); IC50: 9 µM

Observed IC50 on full length AR (Homo sapiens, UniProt P10275, T878A), entry Cc1ccccc1-c1cc(O)c2c(c1)CN(c1nccs1)CCO2 , equals 29.7 µM

---

- Target Or System: AR-TIF2 PPI (Homo sapiens, UniProt P10275)
- Construct: expressed in transfected cells; host or cells: U-2 OS osteosarcoma cells, co-infected with recombinant adenoviruses
- Sequence (P10275 663-920 limits assumed): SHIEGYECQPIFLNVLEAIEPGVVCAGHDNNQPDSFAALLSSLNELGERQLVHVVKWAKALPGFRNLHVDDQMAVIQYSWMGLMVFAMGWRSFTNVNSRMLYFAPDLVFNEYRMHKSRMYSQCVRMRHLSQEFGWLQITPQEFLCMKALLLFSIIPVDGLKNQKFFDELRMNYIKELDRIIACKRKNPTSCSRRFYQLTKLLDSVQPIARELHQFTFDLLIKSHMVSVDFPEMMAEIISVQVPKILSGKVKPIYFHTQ
- Test Name: AR-TIF2 PPI biosensor (PPIB) HCS assay, disruption of pre-formed AR-TIF2 PPI complexes
- Format: cell-based
- Study Conditions: U-2 OS cells; 25 nM DHT 90 min prior to compounds for 3 h
Value Type: pIC50
// scale note: pIC50 = -log10(conc_M); give the bare number

CC(=O)NCCC(=O)NCc1ccc2[nH]c(-c3ccccc3F)c(C)c2c1 [S3–13]
4.38
Cc1ccccc1-c1cc(O)c2c(c1)CN(c1nc(C(N)=O)cs1)CCO2 [S1–1]
4.58
Cc1c(-c2ccccc2F)[nH]c2ccc(CNC(=O)CCc3cnccn3)cc12 [S3–12]
4.57

Memo: Cc1c(-c2ccccc2F)[nH]c2ccc(CNC(=O)c3ccc(CO)o3)cc12 [S3–14] , reported pIC50: 4.74

Given item Cc1c(-c2ccccc2F)[nH]c2ccc(CNC(=O)CCc3cn[nH]c3)cc12 [S3–11] , the value recorded as its pIC50 is 4.54

# pIC50 of Cc1c(-c2ccc(F)cc2)[nH]c2ccc(CNC(=O)c3ccc(CO)o3)cc12 [S3–15] = 4.58

pIC50 for Cc1nsc(NC(=O)N2CCC(Sc3ccccc3C)CC2)n1 [S2–6] is 5.24

For Cc1ccccc1-c1cc(O)c2c(c1)CN(c1nccs1)CCO2 [S1–3] the molecule record lists pIC50 as 4.20
